Catalogue of IC50 readings, one per entry.
# TESTED_SYSTEM: MDM4 protein (amino acids 2-185) (Homo sapiens)
# Construct: MDM4 protein (amino acids 2-185), tagged with a C-terminal Biotin moiety
# Sequence (O15151 2-185): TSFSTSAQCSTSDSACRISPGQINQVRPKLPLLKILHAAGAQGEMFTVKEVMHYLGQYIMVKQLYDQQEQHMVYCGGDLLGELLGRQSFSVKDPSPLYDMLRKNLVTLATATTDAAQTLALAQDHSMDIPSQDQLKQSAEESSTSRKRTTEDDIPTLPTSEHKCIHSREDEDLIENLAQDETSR
# TEST_PROTOCOL: Time resolved fluorescence energy transfer (TR-FRET) assay, inhibition of p53-Hdm4 interaction
# Type: binding
# MEASUREMENT_CONDITIONS: MDM4-Bio 10 nM, Cy5-p53 peptide 20 nM
MEASURED_ATTRIBUTE: IC50 (µM)

structure=O=C(NCCN1CCN(Cc2ccccn2)C1=O)c1[nH]c2cc(Cl)ccc2c1-c1c(-c2ccccc2)ncn1Cc1ccc(Cl)cc1 value_observed=63.7
structure=O=C(CN1CCN(CCNC(=O)c2[nH]c3cc(Cl)ccc3c2-c2c(-c3ccccc3)ncn2Cc2ccc(Cl)cc2)CC1)Nc1cccnc1 value_observed=54.9
structure=Fc1cc2c(-c3c(-c4ccccc4)ncn3Cc3ccc4cc[nH]c4c3)c[nH]c2cc1Cl value_observed=68.3
structure=Oc1cccc(-c2ncn(Cc3ccc(Cl)cc3)c2-c2c[nH]c3cc(Cl)c(F)cc23)c1 value_observed=43.4
structure=OCc1cc(Cl)ccc1Cn1cnc(-c2ccccc2)c1-c1c[nH]c2cc(Cl)c(F)cc12 value_observed=55.3
